System: myeloid leukemia patient primary cells Pat.9
Assay: cell viability (% survival relative to DMSO control); higher = less cytotoxic
Conditions: 1000 nM; 72 h
Entries and their cell viability
Please state the figure in %; there is no need to write the unit.

Previously resolved entries follow.
CCN(CC)C(=S)SSC(=S)N(CC)CC; 33.6
CN(CCOc1ccc(Cc2sc(O)nc2O)cc1)c1ccccn1; 61.9

Looking up CN(Cc1cnc2nc(N)nc(N)c2n1)c1ccc(C(=O)N[C@@H](CCC(=O)O)C(=O)O)cc1 [Methotrexate] , I see its cell viability listed as 6.38

====

Tested on: HL-60
Experiment: cell viability (% survival relative to DMSO control); higher = less cytotoxic
Settings: 0.01 µM; 72 h; co-treatment: pictilisib 100 nM
Structures can show the parent of a compound that is named as a salt.
Readout Name: cell viability (%)
Please state the figure in %; there is no need to write the unit.

Previously resolved entries follow.
O=C([O-])CC(O)(C(=O)[O-])C(O)C(=O)[O-].[K+].[K+].[K+] (stereo unspecified) [Hydroxycitrate]; 90.3
O=c1cc(-c2ccccc2)oc2c1ccc1ccccc12; 101
Cc1cccc(Nc2cc(Cl)nc(SCC(=O)O)n2)c1C; 80.8
O=c1cc(N2CCOCC2)oc2c(-c3ccccc3)cccc12; 104
Cc1cc(CS(=O)(=O)c2ccccc2)cc(OCc2ccc(CN3CCC[C@@H]3CO)cc2)c1 [PF 543 hydrochloride]; 97.3

Looking up N#Cc1ccc(N(Cc2ccc(Br)cc2)n2cnnc2)cc1 , I see its cell viability listed as 79.9

Looking up O=C1C(SCCO)=C(SCCO)C(=O)c2ccccc21 , I see its cell viability listed as 104

Looking up CCOC(=O)c1sc(NC(=O)c2ccco2)c(SC#N)c1C , I see its cell viability listed as 101

Looking up CCCc1nc(C)c2c(=O)nc(-c3cc(S(=O)(=O)N4CCN(CC)CC4)ccc3OCC)[nH]n12 , I see its cell viability listed as 104

Looking up CC/C=C\C[C@H]1C(=O)CC[C@@H]1CC(=O)OC [methyl jasmonate] , I see its cell viability listed as 104

Looking up O=c1c(-c2ccc(O)cc2)coc2cc(O[C@@H]3O[C@H](CO)[C@@H](O)[C@H](O)[C@H]3O)ccc12 , I see its cell viability listed as 103

Looking up CCOC(=O)c1ccc(-c2ccc(OC(=O)N(C)Cc3cccc(-c4ccncc4)c3)cc2)cc1 , I see its cell viability listed as 103

Looking up N#C/C(=C\c1ccc(O)cc1)C(=O)O [alpha-cyano-4-hydroxycinnamic acid] , I see its cell viability listed as 99.2

Looking up CCCCCCCC/C=C\CCCCCCCC(=O)Nc1ccccc1 [Octadec-9-Enoic Acid Phenylamide] , I see its cell viability listed as 99

Looking up CO[C@H]1C[C@@H]2CC[C@@H](C)[C@@](O)(O2)C(=O)C(=O)N2CCCC[C@H]2C(=O)O[C@H]([C@H](C)C[C@@H]2CC[C@@H](OC(=O)C(C)(CO)CO)[C@H](OC)C2)CC(=O)[C@H](C)/C=C(\C)[C@@H](O)[C@@H](OC)C(=O)[C@H](C)C[C@H](C)/C=C/C=C/C=C/1C , I see its cell viability listed as 81

Looking up C=CC(=O)c1ccc(O)cc1 , I see its cell viability listed as 103
